# Measured On: TrkC (h) (Homo sapiens, UniProt Q16288)
# Sequence (Q16288 32-839): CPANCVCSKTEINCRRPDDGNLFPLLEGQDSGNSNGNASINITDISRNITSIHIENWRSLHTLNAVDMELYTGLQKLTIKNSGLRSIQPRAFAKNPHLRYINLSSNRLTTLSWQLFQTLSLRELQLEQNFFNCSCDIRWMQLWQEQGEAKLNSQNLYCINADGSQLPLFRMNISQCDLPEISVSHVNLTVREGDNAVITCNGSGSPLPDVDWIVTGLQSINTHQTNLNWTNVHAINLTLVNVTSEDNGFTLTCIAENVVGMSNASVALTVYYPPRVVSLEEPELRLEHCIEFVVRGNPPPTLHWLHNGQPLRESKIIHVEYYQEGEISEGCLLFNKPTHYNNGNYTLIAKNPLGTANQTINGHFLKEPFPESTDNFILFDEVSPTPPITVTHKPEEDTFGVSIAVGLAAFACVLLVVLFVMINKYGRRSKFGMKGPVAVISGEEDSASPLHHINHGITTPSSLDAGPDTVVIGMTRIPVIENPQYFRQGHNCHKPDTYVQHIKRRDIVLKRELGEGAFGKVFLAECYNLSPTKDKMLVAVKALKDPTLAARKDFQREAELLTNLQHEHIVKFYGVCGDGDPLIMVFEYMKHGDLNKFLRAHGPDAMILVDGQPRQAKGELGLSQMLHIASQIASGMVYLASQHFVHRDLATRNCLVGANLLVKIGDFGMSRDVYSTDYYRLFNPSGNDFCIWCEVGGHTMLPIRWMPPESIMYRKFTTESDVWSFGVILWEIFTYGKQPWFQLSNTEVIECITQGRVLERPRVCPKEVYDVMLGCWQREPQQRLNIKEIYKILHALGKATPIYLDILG
// boundary case: IC50 equal to 5 nM maps to f; strictly smaller maps to t

As a guide, the following entries are already answered.
| Molecule | Category |
| --- | --- |
| COc1cc2nccc(Oc3ccc(NC(=O)c4nn(C5CC5)cc(-c5ccc(F)cc5)c4=O)cn3)c2cc1OC [Compound 36] | t |
| COc1cc2nccc(Oc3ncc(NC(=O)c4cn(C(C)C)nc(-c5ccc(F)cc5)c4=O)cn3)c2cc1OC [Compound 40] | f |
| COc1cc2nccc(Oc3ncc(NC(=O)c4nn(C5CC5)cc(-c5ccc(F)cc5)c4=O)cn3)c2cc1OC [Compound 37] | t |
| COc1cc2nccc(Oc3ncc(NC(=O)c4nn(C(C)C)cc(-c5ccc(F)cc5)c4=O)cn3)c2cc1OC [Compound 34] | f |

Kindly consider the entry below.
Incoming: Would you kindly verify if IC50 of COc1cc2nccc(Oc3cnc(NC(=O)c4cn(C(C)C)nc(-c5ccc(F)cc5)c4=O)nc3)c2cc1OC [Compound 39] is strictly less than 5 nM?
Outgoing: f
